Data provenance is the supplement of paper PMC10065799.

Recorded phosphorylation enrichment by entry
measuredOn: FGFR1 (UniProt P11362)
Sequence (P11362 whole entry, looked up): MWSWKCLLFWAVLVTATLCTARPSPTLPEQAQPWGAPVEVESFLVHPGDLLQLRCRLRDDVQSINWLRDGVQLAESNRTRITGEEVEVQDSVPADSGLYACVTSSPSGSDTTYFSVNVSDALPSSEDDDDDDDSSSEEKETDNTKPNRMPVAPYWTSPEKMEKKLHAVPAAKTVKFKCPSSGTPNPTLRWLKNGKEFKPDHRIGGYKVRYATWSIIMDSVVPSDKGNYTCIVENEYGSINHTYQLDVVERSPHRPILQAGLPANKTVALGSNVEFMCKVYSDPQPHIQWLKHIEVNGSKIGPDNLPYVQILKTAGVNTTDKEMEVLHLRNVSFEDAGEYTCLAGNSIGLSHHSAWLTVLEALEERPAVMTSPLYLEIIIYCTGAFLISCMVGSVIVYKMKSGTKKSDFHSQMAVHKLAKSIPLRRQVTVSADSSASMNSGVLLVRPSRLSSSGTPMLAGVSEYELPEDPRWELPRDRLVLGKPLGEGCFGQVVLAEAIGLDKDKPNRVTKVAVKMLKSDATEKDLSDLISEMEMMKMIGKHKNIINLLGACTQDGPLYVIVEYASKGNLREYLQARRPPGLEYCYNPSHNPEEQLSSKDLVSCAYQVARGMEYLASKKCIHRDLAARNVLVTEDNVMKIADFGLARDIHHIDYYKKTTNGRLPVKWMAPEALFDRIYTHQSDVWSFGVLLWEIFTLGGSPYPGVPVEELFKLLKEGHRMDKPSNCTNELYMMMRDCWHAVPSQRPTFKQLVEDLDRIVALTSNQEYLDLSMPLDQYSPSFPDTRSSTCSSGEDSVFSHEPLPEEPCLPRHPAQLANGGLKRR
assayText: phosphorylation enrichment, bacterial display (enrichment ratio); higher = better substrate or ligand; peptides without Tyr show the background;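 also: 11-residue human phosphosite peptides and single-mutation variants displayed on the E. coli surface, counted by deep sequencing, each peptide's frequency after selection divided by its frequency in the unselected input library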;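 also: frequency after pTyr selection over input frequency; kinase dosed for 20-30% of maximal phosphorylation in three min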

- primarySequence: "LFDHIYTTQSD [RET_Y928]"
  phosphorylation enrichment: 2.9
- primarySequence: "SHMVDYQPYRK [TEX37_Y25]"
  phosphorylation enrichment: 0.47
- primarySequence: "FAASSYSFSDL [EMD_Y59_S54F]"
  phosphorylation enrichment: 0.548
- primarySequence: "HPFHVYPQPGM [BAG3_Y114]"
  phosphorylation enrichment: 0.749
- primarySequence: "RREGVYRNNID [PTEN_Y46_L42R]"
  phosphorylation enrichment: 0.392
- primarySequence: "PSSNLYFRWLT [CNGA3_Y168_YF]"
  phosphorylation enrichment: 1.52
- primarySequence: "SLLLSYYLIKW [NUP160_Y773_P768S]"
  phosphorylation enrichment: 2.51
- primarySequence: "REGKIYEFNQV [ZNF665_Y162_H157R_YF]"
  phosphorylation enrichment: 0.46
- primarySequence: "EATKGYPDDPT [G6PD_Y322_L323P]"
  phosphorylation enrichment: 0.465
- primarySequence: "KRAIGYFSATS [FAM120A_Y327_YF]"
  phosphorylation enrichment: 0.381
- primarySequence: "FGSIMYEFVGK [SLC18A1_Y251_V249I]"
  phosphorylation enrichment: 0.658
- primarySequence: "KNKELYSDPFD [PDE10A_Y300_L303P]"
  phosphorylation enrichment: 0.706
- primarySequence: "QGFDTYFGYLL [ARSB_Y165_R160Q]"
  phosphorylation enrichment: 5.78
- primarySequence: "IATTIYSGDKI [UGGT2_Y823_A821T]"
  phosphorylation enrichment: 0.57
- primarySequence: "MHDSNYVSKGS [PDGFRA_Y849]"
  phosphorylation enrichment: 0.501
- primarySequence: "SVVVPYEPREV [TP53_Y220_P223R]"
  phosphorylation enrichment: 0.527
- primarySequence: "CTTIHNNYMCN [TP53_Y234_Y234N]"
  phosphorylation enrichment: 0.423
- primarySequence: "ALVDTYCRHNY [HLA-DRB1_Y107_A103L]"
  phosphorylation enrichment: 0.401
- primarySequence: "KDLPNYNWKSF [KISS1_Y112_N115K]"
  phosphorylation enrichment: 0.418
- primarySequence: "DFLSSYSAVNE [OAT_Y85_Q90E]"
  phosphorylation enrichment: 0.55
- primarySequence: "PDDPSYSLVDD [PSTPIP2_Y323_N322S]"
  phosphorylation enrichment: 0.899
- primarySequence: "KQQEIYQELTQ [CD209_Y239]"
  phosphorylation enrichment: 3.1
- primarySequence: "MHLRQYELLGG [GNAS_Y391]"
  phosphorylation enrichment: 0.558
- primarySequence: "RSFPSYFTSHV [NEFL_Y442_YF]"
  phosphorylation enrichment: 0.899
- primarySequence: "TLPAFYMGNFS [GLB1_Y552]"
  phosphorylation enrichment: 0.543
- primarySequence: "RISGVYKLPPD [ANGPTL7_Y145]"
  phosphorylation enrichment: 0.623
- primarySequence: "RVKPIYFHTQG [AR_Y916_K911R]"
  phosphorylation enrichment: 0.706
- primarySequence: "NRLNDYIFSFD [RARS1_Y516]"
  phosphorylation enrichment: 0.721
- primarySequence: "VDSLRYIYPKL [EIF2B3_Y92_A87V]"
  phosphorylation enrichment: 0.453

* * *

measuredOn: FGFR1 (UniProt P11362)
assayText: phosphorylation enrichment, bacterial display (enrichment ratio); higher = better substrate or ligand; peptides without Tyr show the background
Assign class by phosphorylation enrichment: not lower than 0.6 means T; lower than 0.6 means F.

- primarySequence: "NTGLDYIKFTW [HRH1_Y386]"
  class: "T"
- primarySequence: "MSSLPYMKMIF [SLC4A11_Y853]"
  class: "T"
- primarySequence: "DDSSAYRSVDE [BCKDHA_Y345]"
  class: "F"
- primarySequence: "NKYTTYLPWLP [C9orf24_Y126_R129W]"
  class: "T"
- primarySequence: "TLNHQYDYTFH [CSNK1A1_Y292_D297H]"
  class: "T"
- primarySequence: "FEEDSYSHVMA [FDPS_Y388_I391V_YF]"
  class: "T"
- primarySequence: "SQETFYRVSNM [ABCD1_Y181_Q178E_YF]"
  class: "F"
- primarySequence: "SPQAHYRLSAF [ADAMTS9_Y100_S96P]"
  class: "F"
- primarySequence: "LSERGYSFVTT [ACTA2_Y200_T196S]"
  class: "T"
- primarySequence: "SNVEQYQAMVT [TPR_Y965]"
  class: "F"
- primarySequence: "RIVRKYKKVRF [F8_Y442_G439V]"
  class: "T"
- primarySequence: "GGQDVYGDFGG [Probound]"
  class: "F"
- primarySequence: "CEAMEYLESKQ [BTK_Y511]"
  class: "T"
- primarySequence: "KFMVGYEMLAQ [GALT_Y339]"
  class: "F"
- primarySequence: "KGKLIYLLRDS [NXPE1_Y350_G353R]"
  class: "F"
- primarySequence: "MEIHAYRKLSE [LMNA_Y376_L380S]"
  class: "F"
- primarySequence: "SSDKVYAHQMD [MLH1_Y379_V384D]"
  class: "F"
- primarySequence: "CTLNVYRQLHN [LUZP1_Y1036_S1034N]"
  class: "F"
- primarySequence: "SFHCSYSEIKD [DCLRE1C_Y322_S320C]"
  class: "F"
- primarySequence: "MAQDIYRASFF [ALK_Y1278_R1275Q_YF]"
  class: "F"
- primarySequence: "SFVMVYEGNAR [INSR_Y1038_G1035V]"
  class: "F"
- primarySequence: "EEGESHVCSSD [DCX_Y125_Y125H]"
  class: "F"
- primarySequence: "LLSVAYKNVVR [YWHAZ_Y48_G53R]"
  class: "T"
- primarySequence: "RFGRKYKKVRF [F8_Y442_I438F]"
  class: "T"
- primarySequence: "KFEDVYVGICL [B3GALNT1_Y269]"
  class: "T"
- primarySequence: "DDEESYENVPR [FCRL3_Y722_N721S]"
  class: "F"
- primarySequence: "CTTIHYNSMCN [TP53_Y234_Y236S]"
  class: "F"
- primarySequence: "DVRQEYSGMIL [PLXND1_Y616_P617S]"
  class: "F"

* * *

measuredOn: FGFR3 (UniProt P22607)
Sequence (P22607 whole entry, looked up): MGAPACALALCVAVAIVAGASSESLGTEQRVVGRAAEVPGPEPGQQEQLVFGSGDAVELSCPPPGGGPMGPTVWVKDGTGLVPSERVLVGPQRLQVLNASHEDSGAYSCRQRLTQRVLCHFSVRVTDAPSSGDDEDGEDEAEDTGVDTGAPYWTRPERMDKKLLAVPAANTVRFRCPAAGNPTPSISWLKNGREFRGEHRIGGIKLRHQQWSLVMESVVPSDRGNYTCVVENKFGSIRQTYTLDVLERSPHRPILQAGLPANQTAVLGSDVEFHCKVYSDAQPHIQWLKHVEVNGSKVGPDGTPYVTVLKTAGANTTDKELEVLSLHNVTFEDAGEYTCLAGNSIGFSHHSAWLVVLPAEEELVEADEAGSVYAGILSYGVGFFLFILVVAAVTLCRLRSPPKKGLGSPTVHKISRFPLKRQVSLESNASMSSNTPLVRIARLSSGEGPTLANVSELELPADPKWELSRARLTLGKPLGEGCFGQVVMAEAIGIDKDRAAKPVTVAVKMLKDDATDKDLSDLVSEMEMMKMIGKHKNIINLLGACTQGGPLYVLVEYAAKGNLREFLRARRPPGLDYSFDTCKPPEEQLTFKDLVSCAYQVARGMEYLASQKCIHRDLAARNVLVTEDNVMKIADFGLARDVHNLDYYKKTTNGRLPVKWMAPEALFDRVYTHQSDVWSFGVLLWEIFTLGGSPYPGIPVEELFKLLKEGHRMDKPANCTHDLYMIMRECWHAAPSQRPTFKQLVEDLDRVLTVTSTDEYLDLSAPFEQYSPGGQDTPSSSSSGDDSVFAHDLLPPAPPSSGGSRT
assayText: phosphorylation enrichment, bacterial display (enrichment ratio); higher = better substrate or ligand; peptides without Tyr show the background
Please note: fulfilled applies when phosphorylation enrichment is 0.8 or greater, and not fulfilled applies otherwise.

- primarySequence: "FEKFLYFLPAS [DYNC2H1_Y346_H341Y_YF]"
  class: "fulfilled"
- primarySequence: "PLGKDYRKVEG [MAP1A_Y1909_A1912V]"
  class: "not fulfilled"
- primarySequence: "GGQDVYGDFGG [Probound]"
  class: "not fulfilled"
- primarySequence: "SVQIVYKPVDL [MAPT_Y627]"
  class: "not fulfilled"
- primarySequence: "KYRREYILSLE [GPC3_Y299_W296R]"
  class: "not fulfilled"
- primarySequence: "RGDCTYAPLLG [AR_Y269_M268T]"
  class: "fulfilled"
- primarySequence: "LEQDEYALRSH [HADHB_Y244]"
  class: "fulfilled"
- primarySequence: "TLKDVCDDGKF [RPS6KA3_Y483_Y483C_YF]"
  class: "not fulfilled"
- primarySequence: "LAARYYNWVCF [FLT4_Y1231_S1235C]"
  class: "fulfilled"
- primarySequence: "CTTIHYNYMGN [TP53_Y234_C238G]"
  class: "not fulfilled"
- primarySequence: "SAASSYSFSDL [EMD_Y59]"
  class: "not fulfilled"
- primarySequence: "CSRCFYQLTKL [AR_Y858_R856C]"
  class: "not fulfilled"

* * *

Test system: c-Src
assayText: phosphorylation enrichment, bacterial display (enrichment ratio); higher = better substrate or ligand; peptides without Tyr show the background
parameterMeasured: phosphorylation enrichment

- primarySequence: "RVEDAYILTCN [CCT6A_Y229]"
  measuredOn: "c-Src"
  parameterMeasured: "phosphorylation enrichment"
  numericReadout: 1
- primarySequence: "AKQVGYENAGT [PC_Y304]"
  measuredOn: "c-Src"
  parameterMeasured: "phosphorylation enrichment"
  numericReadout: 0.433
- primarySequence: "CTTIHYNSMCN [TP53_Y234_Y236S]"
  measuredOn: "c-Src"
  parameterMeasured: "phosphorylation enrichment"
  numericReadout: 0.396
- primarySequence: "HPFHVYPQPGM [BAG3_Y114]"
  measuredOn: "c-Src"
  parameterMeasured: "phosphorylation enrichment"
  numericReadout: 0.465
- primarySequence: "SQQTYCRVSNM [ABCD1_Y181_Y181C]"
  measuredOn: "c-Src"
  parameterMeasured: "phosphorylation enrichment"
  numericReadout: 0.718
- primarySequence: "GVFSRYFTTFD [CLCA1_Y661_YF]"
  measuredOn: "c-Src"
  parameterMeasured: "phosphorylation enrichment"
  numericReadout: 0.481
- primarySequence: "CTTIHYNYMCK [TP53_Y234_N239K]"
  measuredOn: "c-Src"
  parameterMeasured: "phosphorylation enrichment"
  numericReadout: 0.371
- primarySequence: "IRCQGYSHRIL [MYO3B_Y993_R990C]"
  measuredOn: "c-Src"
  parameterMeasured: "phosphorylation enrichment"
  numericReadout: 0.523
- primarySequence: "KLKRSYSSRDI [USP8_Y717_P720R]"
  measuredOn: "c-Src"
  parameterMeasured: "phosphorylation enrichment"
  numericReadout: 0.458
- primarySequence: "DLDTDYGSGYP [RNASEH2A_Y206]"
  measuredOn: "c-Src"
  parameterMeasured: "phosphorylation enrichment"
  numericReadout: 0.652
- primarySequence: "ITGNGYFFRVF [MYBPC3_Y1135_I1131T_YF]"
  measuredOn: "c-Src"
  parameterMeasured: "phosphorylation enrichment"
  numericReadout: 0.31
- primarySequence: "KDLPNYNWKSF [KISS1_Y112_N115K]"
  measuredOn: "c-Src"
  parameterMeasured: "phosphorylation enrichment"
  numericReadout: 0.588
- primarySequence: "SQETFYRVSNM [ABCD1_Y181_Q178E_YF]"
  measuredOn: "c-Src"
  parameterMeasured: "phosphorylation enrichment"
  numericReadout: 0.49
- primarySequence: "EKKDVYKTGEQ [CFH_Y1008_A1010T]"
  measuredOn: "c-Src"
  parameterMeasured: "phosphorylation enrichment"
  numericReadout: 0.438
